- MEASUREMENT NOTES: BSK_hDFCGF_SRB: Viability Assessment in the BioMAP Diversity Plus: hDFCGF Assay (AID 2283061);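 further: cells exposed to compound for 24 h before the read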
- CONDITIONS: primary human foreskin fibroblasts
The source made the active and inactive calls. How the source made its calls: active means hit-call score of the fitted dose curve at least 0.9, where 1 is the maximum; inactive means score below 0.9.
// classify into yes (active), no (inactive)

Exercise: Dear colleague, could you share the recorded outcome for CCc1cccc(C)c1N(C(=O)CS(=O)(=O)O)C(C)COC (centres undefined) when you have a moment?
Key: no

Exercise: Dear colleague, could you share the recorded outcome for Nc1nc(N)nc(-c2ccccc2)n1 when you have a moment?
Key: no

Exercise: Dear colleague, could you share the recorded outcome for Cc1ccc([N+](=O)[O-])cc1N when you have a moment?
Key: no

Exercise: Dear colleague, could you share the recorded outcome for CCCCCC1=CCCC1=O when you have a moment?
Key: no

Exercise: Dear colleague, could you share the recorded outcome for C1CNCCN1 when you have a moment?
Key: no

Exercise: Dear colleague, could you share the recorded outcome for CCCCCCCCC(CO)CCCCCC (centres undefined) when you have a moment?
Key: yes

Exercise: Dear colleague, could you share the recorded outcome for CC(C)[N+](C)(CCOC(=O)C1c2ccccc2Oc2ccccc21)C(C)C when you have a moment?
Key: no

Exercise: Dear colleague, could you share the recorded outcome for CC/C=C\CCOC(=O)c1ccccc1O when you have a moment?
Key: yes

Exercise: Dear colleague, could you share the recorded outcome for Oc1c(Cl)cc(Cl)c(Cl)c1Cl when you have a moment?
Key: yes

Exercise: Dear colleague, could you share the recorded outcome for C=CC(=O)OCCCCCCCC(C)C when you have a moment?
Key: yes

Exercise: Dear colleague, could you share the recorded outcome for O=C(Cl)c1c(Cl)c(Cl)c(C(=O)Cl)c(Cl)c1Cl when you have a moment?
Key: no

Exercise: Dear colleague, could you share the recorded outcome for COc1ccc(C(=O)/C(Br)=C\C(=O)O)cc1 when you have a moment?
Key: yes

Exercise: Dear colleague, could you share the recorded outcome for CCOC(=O)/C=C\C(=O)OCC when you have a moment?
Key: no

Exercise: Dear colleague, could you share the recorded outcome for CC1(C)CC(O)CC(C)(C)N1[O] when you have a moment?
Key: no

Exercise: Dear colleague, could you share the recorded outcome for O=C1CCCCCCCCCCC1 when you have a moment?
Key: no

Exercise: Dear colleague, could you share the recorded outcome for C=CCCCCCCCCC=O when you have a moment?
Key: no

Exercise: Dear colleague, could you share the recorded outcome for CCCCCCC=O when you have a moment?
Key: no

Exercise: Dear colleague, could you share the recorded outcome for CC1=CC=C(C(C)C)CC1 when you have a moment?
Key: no

Exercise: Dear colleague, could you share the recorded outcome for CCCCC1C(=O)N(c2ccccc2)N(c2ccccc2)C1=O when you have a moment?
Key: no

Exercise: Dear colleague, could you share the recorded outcome for c1ccc2sc(SSN3CCOCC3)nc2c1 when you have a moment?
Key: yes

Exercise: Dear colleague, could you share the recorded outcome for CC=C(C)C=CC=C(C)C when you have a moment?
Key: no

Exercise: Dear colleague, could you share the recorded outcome for CC(c1cc(C(C)(C)C)cc(C(C)(C)C)c1O)c1cc(C(C)(C)C)cc(C(C)(C)C)c1O when you have a moment?
Key: no

Exercise: Dear colleague, could you share the recorded outcome for CCCCCCCO when you have a moment?
Key: no

Exercise: Dear colleague, could you share the recorded outcome for CCCC(C)C(=O)OCC (centres undefined) when you have a moment?
Key: no

Exercise: Dear colleague, could you share the recorded outcome for Clc1cc(Cl)c(Cl)c(Cl)c1Cl when you have a moment?
Key: no

Exercise: Dear colleague, could you share the recorded outcome for CCC1(C)C(=O)N(Cl)C(=O)N1Cl (centres undefined) when you have a moment?
Key: no

Exercise: Dear colleague, could you share the recorded outcome for Cc1c(O)cccc1O when you have a moment?
Key: no

Exercise: Dear colleague, could you share the recorded outcome for CCOC(=O)C1=NOC(c2ccccc2)(c2ccccc2)C1 when you have a moment?
Key: no

Exercise: Dear colleague, could you share the recorded outcome for Oc1ccc(/C=C/c2cc(O)cc(O)c2)cc1 when you have a moment?
Key: no

Exercise: Dear colleague, could you share the recorded outcome for O=C(O)C(F)(F)C(F)(F)C(F)(F)C(F)(F)C(=O)O when you have a moment?
Key: no

Exercise: Dear colleague, could you share the recorded outcome for CC(C)C(=O)OCCc1ccccc1 when you have a moment?
Key: no

Exercise: Dear colleague, could you share the recorded outcome for O=C(Oc1ccccc1)c1ccccc1C(=O)Oc1ccccc1 when you have a moment?
Key: no

Exercise: Dear colleague, could you share the recorded outcome for CCCCCCOC(=O)CCCCC(=O)OCCCCCC when you have a moment?
Key: no

Exercise: Dear colleague, could you share the recorded outcome for CC=C(C)C(C)=O when you have a moment?
Key: no

###

- EXPERIMENTAL TARGET: Estrogen receptor (Homo sapiens) (UniProt P03372)
- Sequence (P03372 whole entry, looked up): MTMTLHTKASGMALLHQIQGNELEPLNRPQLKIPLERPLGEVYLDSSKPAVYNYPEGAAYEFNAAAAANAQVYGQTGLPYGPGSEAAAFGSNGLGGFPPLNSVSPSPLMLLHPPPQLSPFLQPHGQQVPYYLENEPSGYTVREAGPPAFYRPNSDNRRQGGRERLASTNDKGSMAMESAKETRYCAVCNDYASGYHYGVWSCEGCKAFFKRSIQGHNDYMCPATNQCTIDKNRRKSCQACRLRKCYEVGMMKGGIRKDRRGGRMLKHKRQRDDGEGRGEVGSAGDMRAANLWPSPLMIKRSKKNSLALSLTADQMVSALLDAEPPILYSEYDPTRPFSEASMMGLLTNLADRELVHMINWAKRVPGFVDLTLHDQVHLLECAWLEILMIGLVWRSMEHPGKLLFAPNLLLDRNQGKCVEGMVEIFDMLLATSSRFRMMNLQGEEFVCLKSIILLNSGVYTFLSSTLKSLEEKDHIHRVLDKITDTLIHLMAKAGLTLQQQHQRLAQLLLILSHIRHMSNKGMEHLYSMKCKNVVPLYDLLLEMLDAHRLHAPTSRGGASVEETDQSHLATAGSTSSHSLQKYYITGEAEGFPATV
- MEASUREMENT NOTES: CCTE_Deisenroth_AIME_384WELL_LUC_Active: CCTE's 384-well Estrogen Receptor Transactivation Assay with AIME metabolic competence (ERTA luciferase; metabolism positive), Deisenroth Lab (AID 2284030)
- Method: CCTE_Deisenroth_AIME_384WELL (AIME metabolism assay) is a cell-based, single-readout assay that uses VM7Luc4E2, a human mammary gland/breast cell line, with measurements taken at 24 hour after chemical dosing in a 384-well plate.CCTE_Deisenroth_AIME_384WELL_LUC_Active is one of four assay components measured or calculated from the CCTE_Deisenroth_AIME_384WELL assay. […]
Records with an inconclusive call do not appear. Calls of active or inactive are those of the source. The calls were made as follows: active = hit-call score of the fitted dose curve at least 0.9, where 1 is the maximum; inconclusive = response in the unintended direction; inactive = score below 0.9. Peptide text beside a SMILES is read from it.
// classify into yes (1) = active, no (0) = inactive

Exercise: Dear colleague, could you share the recorded outcome for COC(=O)c1ccccc1C when you have a moment?
Key: no (0)

Exercise: Dear colleague, could you share the recorded outcome for CCC1COC(=O)O1 (stereo not drawn) when you have a moment?
Key: no (0)

Exercise: Dear colleague, could you share the recorded outcome for O=C(O)CC(C(=O)O)S(=O)(=O)O (stereo not drawn) when you have a moment?
Key: no (0)

Exercise: Dear colleague, could you share the recorded outcome for O=C(Nc1ccccc1)c1cc(Cl)ccc1O when you have a moment?
Key: no (0)

Exercise: Dear colleague, could you share the recorded outcome for CC1=NN(c2ccc(S(=O)(=O)O)cc2)C(=O)C1N=Nc1ccccc1 (stereo not drawn) when you have a moment?
Key: no (0)

Exercise: Dear colleague, could you share the recorded outcome for CCCCCCCCCC[N+](C)(CCCCCCCCCC)CCC[Si](OC)(OC)OC when you have a moment?
Key: no (0)

Exercise: Dear colleague, could you share the recorded outcome for COC(=O)[C@H](Cc1ccccc1)NC(=O)[C@@H](N)CC(=O)O (H-Asp-Phe-OMe) when you have a moment?
Key: no (0)

Exercise: Dear colleague, could you share the recorded outcome for O=C(O)/C=C/c1ccccc1 when you have a moment?
Key: no (0)

Exercise: Dear colleague, could you share the recorded outcome for CC(C)(C)N when you have a moment?
Key: no (0)

Exercise: Dear colleague, could you share the recorded outcome for CC(=O)/C=C/C1C(C)=CCCC1(C)C (stereo not drawn) when you have a moment?
Key: no (0)

Exercise: Dear colleague, could you share the recorded outcome for O=C(O)c1ccc2c(c1)C(=O)OC2=O when you have a moment?
Key: no (0)

Exercise: Dear colleague, could you share the recorded outcome for O=c1c(O)c(-c2ccc(O)cc2O)oc2cc(O)cc(O)c12 when you have a moment?
Key: yes (1)

Exercise: Dear colleague, could you share the recorded outcome for CC(C)=CCCC(C)=CC#N when you have a moment?
Key: no (0)

###

- Read-out: urokinase plasminogen activator (uPA), PLAU (gene 5328)
- MEASUREMENT NOTES: BSK_BE3C_uPA: BioMAP Diversity Plus: BE3C Assay for urokinase plasminogen activator (uPA) Biomarker Activity (AID 2283038);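 on outcome: uPA protein level quantified by ELISA in cell cultures; uPA read one day after compound addition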
- CONDITIONS: primary human bronchial epithelial cells; actives raise or lower the signal
Active and inactive are the calls of the source. Rule for the calls: active = hit-call score of the fitted dose curve at least 0.9, where 1 is the maximum; inactive = score below 0.9.
// classify into active, inactive

Exercise: Dear colleague, could you share the recorded outcome for CCOC(=O)/C=C\C(=O)OCC when you have a moment?
Key: inactive

Exercise: Dear colleague, could you share the recorded outcome for CCC1(C)C(=O)N(Cl)C(=O)N1Cl (configuration not stated) when you have a moment?
Key: inactive

Exercise: Dear colleague, could you share the recorded outcome for c1ccc2sc(SSN3CCOCC3)nc2c1 when you have a moment?
Key: inactive

Exercise: Dear colleague, could you share the recorded outcome for CC/C=C\CCOC(=O)c1ccccc1O when you have a moment?
Key: inactive

Exercise: Dear colleague, could you share the recorded outcome for O=C(Oc1ccccc1)c1ccccc1C(=O)Oc1ccccc1 when you have a moment?
Key: inactive

Exercise: Dear colleague, could you share the recorded outcome for CCCCCCCO when you have a moment?
Key: inactive

Exercise: Dear colleague, could you share the recorded outcome for CC=C(C)C(C)=O when you have a moment?
Key: inactive

Exercise: Dear colleague, could you share the recorded outcome for c1ccc2c(c1)[nH]c1ccccc12 when you have a moment?
Key: inactive

Exercise: Dear colleague, could you share the recorded outcome for CC/C=C\C/C=C\C/C=C\CCCCCCCC(=O)OC when you have a moment?
Key: active

Exercise: Dear colleague, could you share the recorded outcome for CCCCCC1=CCCC1=O when you have a moment?
Key: inactive

Exercise: Dear colleague, could you share the recorded outcome for O=C1CCCCCCCCCCC1 when you have a moment?
Key: inactive

Exercise: Dear colleague, could you share the recorded outcome for COc1ccc(C(=O)c2ccccc2)c(O)c1 when you have a moment?
Key: inactive

Exercise: Dear colleague, could you share the recorded outcome for CC(Cl)COP(=O)(OCC(C)Cl)OCC(C)Cl (configuration not stated) when you have a moment?
Key: inactive

Exercise: Dear colleague, could you share the recorded outcome for C=CC(=O)OCCCCCCOC(=O)C=C when you have a moment?
Key: inactive

Exercise: Dear colleague, could you share the recorded outcome for CC(C)CCCCCOC(=O)CS when you have a moment?
Key: inactive

Exercise: Dear colleague, could you share the recorded outcome for CCCCCCCCCCCC(C)=O when you have a moment?
Key: inactive

Exercise: Dear colleague, could you share the recorded outcome for CCc1cccc(C)c1N(C(=O)CS(=O)(=O)O)C(C)COC (configuration not stated) when you have a moment?
Key: inactive

Exercise: Dear colleague, could you share the recorded outcome for CCOC(=O)C1=NOC(c2ccccc2)(c2ccccc2)C1 when you have a moment?
Key: inactive

Exercise: Dear colleague, could you share the recorded outcome for O=C(O)C(F)(F)C(F)(F)C(F)(F)C(F)(F)C(=O)O when you have a moment?
Key: inactive

Exercise: Dear colleague, could you share the recorded outcome for C=CC(=O)OCCCCCCCC(C)C when you have a moment?
Key: inactive

Exercise: Dear colleague, could you share the recorded outcome for CCCCCCC=O when you have a moment?
Key: inactive

Exercise: Dear colleague, could you share the recorded outcome for O=C1CCCCCCCCCCCN1 when you have a moment?
Key: inactive

Entry source: PubChem BioAssay (EPA / NIEHS)
